# system-under-test: T1, hK1 (human tissue kallikrein 1), recombinant (human, UniProt P06870 25-262)
# T1 construct: Expressed in P. pastoris from KLK1 cDNA and purified; enzymatically active; also called KLK1; Recombinant (Pichia) Kallikrein
# assay-name: SPR
koff values by entry
Provide the reading as a plain figure in s⁻¹.

[[record]]
binder = "M0103-F07 (Fab, V domains shown) VH: EVQLLESGGGLVQPGGSLRLSCAASGFTFSLYAMHWVRQAPGKGLEWVSSIRPSGGLTKYADSVKGRFTISRDNSKNTLYLQMNSLRAEDTAVYYCARVGVWYGMDVWGQGTTVTVSS VL: AQSALTQPASVSGSPGQSITISCTGTSNDIGRTNYVSWYRQDPGRAPKLILFEVSNRPSGISNRFSASKSGSTASLTISGLQADDESDYYCSSCTTAPVCVFGNGTRVTVLG"
numeric_readout = 0.00743

[[record]]
binder = "M0097-G01 (Fab, V domains shown) VH: EVQLLESGGGLVQPGGSLRLSCAASGFTFSPYYMQWVRQAPGKGLEWVSGISSSGGSTQYADSVKGRFTISRDNSKNTLYLQMNSLRAEDTAVYYCARSQRRTYYPNFGDAFDIWGQGTMVTVSS VL: DIQMTQSPSSLSASVGDRVTITCRASQGIGNYLVWYQHKPGNVPRVLIYAASTLQSGVPSRFRGSGSGTDFTLTISGLQPEDVATYYCQKYDGAPFTFGPGTKVDLKR"
numeric_readout = 0.000832

[[record]]
binder = "M0135-C11 (Fab, V domains shown) VH: EVQLLESGGGLVQPGGSLRLSCAASGFTFSNYSMQWVRQAPGKGLEWVSGIRPSGGSTRYADSVKGRFTISRDNSKNTLYLQMNSLRAEDTAVYYCAVSTGGYYYGMDVWGQGTTVTVSS VL: DIQMTQSPSSVSASVGDRVTITCRASQGISSWLAWYQQKPGKAPKLLIYAASSLQSGVPSRFSGSGSGTDFTLTISSLQPEDFATYYCQQANSFPSLTFGGGTKVEIKR"
numeric_readout = 0.00231

[[record]]
binder = "M0117-F04 (Fab, V domains shown) VH: EVQLLESGGGLVQPGGSLRLSCAASGFTFSMYVMNWVRQAPGKGLEWVSRIGSSGGGTLYADSVKGRFTISRDNSKNTLYLQMNSLRAEDTAVYYCARVSVYRIRNYYYYAMDVWGQGTTVTVSS VL: DIQMTQSPSSLSASVGDRVTITCRASQGIGNYLAWYQQKPGKAPNLLIYKTSNLQSGVPSRFRGSGSGTEFTLTITSVQPDDFATYFCQRYDSYSQYIFGQGTKLETKR"
numeric_readout = 0.00197


What value of measured koff is listed for M0138-A03 (Fab, V domains shown) VH: EVQLLESGGGLVQPGGSLRLSCAASGFTFSFYLMFWVRQAPGKGLEWVSGIYPSGGQTVYADSVKGRFTISRDNSKNTLYLQMNSLRAEDTAVYYCARAIGAGSSFWGQGTLVTVSS VL: DIQMTQSPSSVSASVGDRVTITCRASQGISSWLAWYQQKPGKAPKLLIYAASSLQSGVPSRFSGSGSGTDFTLTISSLQPEDFATYYCQQANSFPHTFGQGTKLEIKR ? 0.000325

Again, but for M0122-D01 (Fab, V domains shown) VH: EVQLLESGGGLVQPGGSLRLSCAASGFTFSHYIMHWVRQAPGKGLEWVSGIYPSGGSTKYADSVKGRFTISRDNSKNTLYLQMNSLRAEDTAVYYCARALVGALDYWGQGTLVTVSS VL: DIQMTQSPSSVSASVGDRVTITCRASQDIRTWLAWYQQKSGKAPKLLIYSSSSLQSGISSRFSGSGSGTDFTLTISNLQPEDSAIYYCQQATTFPWTFGQGTKVEIKR 0.00427

Again, but for M0098-H04 (Fab, V domains shown) VH: EVQLLESGGGLVQPGGSLRLSCAASGFTFSHYVMSWVRQAPGKGLEWVSRIYPSGGQTYYADSVKGRFTISRDNSKNTLYLQMNSLRAEDTAVYYCARGAGWFDPWGQGTLVTVSS VL: AQSELTQPPSASGSPGQSLTISCTGGRRDIGNYNYVSWYQQHPGKAPRLIIYDVRKRPSGVPDRFSGSKSGNVAFLTVSGLQTDDEADYYCGSYTGTSNVFGSGTTVTVLG 0.00255

Again, but for M0102-D07 (Fab, V domains shown) VH: EVQLLESGGGLVQPGGSLRLSCAASGFTFSRYWMWWVRQAPGKGLEWVSSIGPSGGATRYADSVKGRFTISRDNSKNTLYLQMNSLRAEDTAVYYCTTGSAGNWGQGTLVTVSS VL: DIQMTQSPGTLSLSPGERATLSCGASQSVSTTYIAWYQHKPGQPPRLLIYGASNRATGIPDRFRGSGSGTDFTLTISRLEPEDFAVYYCQQYGSSPYTFGQGTKLEIKR 0.0122

Again, but for M0102-A04 (Fab, V domains shown) VH: EVQLLESGGGLVQPGGSLRLSCAASGFTFSHYVMNWVRQAPGKGLEWVSRIYPSGGVTVYADSVKGRFTISRDNSKNTLYLQMNSLRAEDTAVYYCARGYGMDVWGQGTMVTVSS VL: AQSELTQPPSASGTPGQRVTISCSGSSSNIGSNYVYWYQQYPGTVPKLLIHSNNQRPSGVPDRFSGPKSGTSASLAISGLRSEDEADYYCATWDNSLSAWVFGGGTKLTVLR 0.00435

Again, but for M0112-D04 (Fab, V domains shown) VH: EVQLLESGGGLVQPGGSLRLSCAASGFTFSHYVMVWVRQAPGKGLEWVSGIRSSGGVTAYADSVKGRFTISRDNSKNTLYLQMNSLRAEDTAMYYCARVGVWYGMDVWGQGTTVTVSS VL: AQSALTQPLSVSVALGQTARITCGGNNIGSKNVHWYQQKPGQAPVLVIYRDSNRPSGIPERFSGSNSGNTATLTISGAQAGDEADYYCQVWDSSTVFGGGTKLTVLG 0.00956
